Examples of compounds with documented GI50 follow.
Tested on: NCI-H522
protocol-description: NCI tumour cell line growth inhibition, 48 h
Calls of active or inactive are those of the source. Cut-off read from the data, not from the text of the source: active = GI50 up to about 1.1 µM and inactive = higher.

The examples below pair each entry with its known result.
Fill in the blank: the reported GI50 of COc1ccc(/C=N/n2c(Cc3ccccc3)n[nH]c2=O)c(OC)c1 is ____.
> 52 µM (inactive)

Then this compound: CC(C)(C)c1ccc(O)c(C(c2ccc([N+](=O)[O-])cc2)c2cc(C(C)(C)C)ccc2O)c1
2.11 µM (inactive)

Then this compound: O=C(O)c1c(O)c2cc(Br)ccc2oc1=O
> 100 µM (inactive)

More entries:
Fill in the blank: the reported GI50 of COc1ccccc1NC(=O)C(CC(C(=O)Nc1ccccc1OC)/C(C)=N/Nc1ccc([N+](=O)[O-])cc1[N+](=O)[O-])/C(C)=N/Nc1ccc([N+](=O)[O-])cc1[N+](=O)[O-] (stereo not drawn) is ____.
> 73.1 µM (inactive)

Then this compound: CN(C)CC(C)(C)C(=O)/C=C/c1ccccc1
10.3 µM (inactive)

Then this compound: NC(=O)C[C@H](NC(=O)C1(NC(=O)[C@H](Cc2ccc(CP(=O)(O)O)cc2)NC(=O)C(=O)O)CCCCC1)C(=O)NCCCc1cccc2ccccc12
> 10 µM (inactive)

Then this compound: O=C1c2ccccc2OCC1/C=N/O (stereo not drawn)
24.9 µM (inactive)

Then this compound: NC(=S)NS(=O)(=O)c1ccc(F)cc1
> 100 µM (inactive)

Then this compound: CCOC(=O)c1c[nH]c(C(=O)C=[N+]=[N-])c1C1CCN(CC)C1=S (stereo not drawn)
> 100 µM (inactive)

Then this compound: COC1=N[C@H](C(C)C)C(OC)=N[C@H]1Cc1ccc(C[C@@H]2N=C(OC)[C@@H](C(C)C)N=C2OC)s1
23.7 µM (inactive)

Then this compound: N#C[BH2-][n+]1ccc(C(=O)NNC(c2ccccc2)C(F)(F)F)cc1 (stereo not drawn)
68.9 µM (inactive)

Then this compound: CCCCCCCCCCCCCCNCC(OC)OC
16.9 µM (inactive)

Then this compound: CC(=O)CCn1c(=S)sc2ccccc21
19.4 µM (inactive)

---

System: SK-MEL-2
protocol-description: NCI tumour cell line growth inhibition, 48 h
Calls of active or inactive are those of the source. No stated cut-off is given here; in the data, active = GI50 up to about 1.1 µM and inactive = higher.
readout-label: GI50

The examples below pair each entry with its known result.
Fill in the blank: the reported GI50 of O=C(NCCO)c1cc2c(cn1)[nH]c1ccccc12 is ____.
16.8 µM (inactive)

Then this compound: Oc1ccc(-c2nc(-c3cccnc3)c(-c3ccc(Cl)cc3)[nH]2)cc1O
17.8 µM (inactive)

Then this compound: COC(=O)/C=C\C(C#N)(C#N)/N=C/c1ccc(C)cc1
16.3 µM (inactive)

Then this compound: O=P(O)(O)C=C=C1CCCCC1
> 100 µM (inactive)

More entries:
Fill in the blank: the reported GI50 of Cc1cn(C2CC(n3cc(Cn4cc(Br)c(=O)[nH]c4=O)nn3)C(CO)O2)c(=O)[nH]c1=O (stereo not drawn) is ____.
> 100 µM (inactive)

Then this compound: COc1cc(/C=C/c2ccnc3ccccc23)cc(OC)c1OC
3.78 µM (inactive)

Then this compound: COc1cc(C(=O)CC2(O)C(=O)Nc3c(Cl)cc(Cl)cc32)ccc1O (stereo not drawn)
87.1 µM (inactive)

Then this compound: CC(C)(C)c1cc(C(P(=O)(c2ccccc2)c2ccccc2)P(=O)(c2ccccc2)c2ccccc2)cc(C(C)(C)C)c1O
1.87 µM (inactive)

Then this compound: N/C(=N\O)N/N=C\c1c(O)cc(O)cc1O
> 100 µM (inactive)

Then this compound: COc1ccc(/C=N/CCC/N=C/c2ccc(OC)cc2O)c(O)c1
34.8 µM (inactive)

Then this compound: C=CCOC(=O)/C(=C\c1ccc(OC)c(OC)c1)c1ccc(OC)c(OC)c1
47.9 µM (inactive)

Then this compound: C#CC(O)/C=C/C(O)CCCC(O)CC#CC(O)C#CCCCCC(O)/C=C/CCCC(=O)CCCCCCCCCCCCCCCC(O)C(O)C#CC(=O)O (stereo not drawn)
> 25 µM (inactive)

Then this compound: Nc1cc(C(=O)O)nc(O)n1
> 100 µM (inactive)

Then this compound: Cc1nc2c(n1Cc1ccc(F)cc1)C(=O)c1ccccc1C2=O
34.1 µM (inactive)

Then this compound: O=C(CCCN1CCC2(CC1)NC(=O)c1ccccc1O2)c1ccc(F)cc1
> 100 µM (inactive)

Then this compound: Cc1ccc(S(=O)(=O)C(C#N)c2nc3ccccc3nc2-n2ccnc2)cc1 (stereo not drawn)
> 100 µM (inactive)

Then this compound: Cc1ccc(NC(=O)C(=O)C(C(=O)c2ccc3ccccc3c2)C2OC(=O)c3ccccc32)cc1C (stereo not drawn)
15.5 µM (inactive)

Then this compound: NS(=O)(=O)c1ccc(NCc2cccc3c(=O)c4ccc(Cl)cc4oc23)cc1
68.7 µM (inactive)

Then this compound: CN(C)c1ccc(/C=C(\NC(=O)c2ccccc2)c2nc3ccc4c(c3[nH]2)C(=O)c2ccccc2C4=O)cc1
61.8 µM (inactive)

Then this compound: CN1C(=O)C(O)CC1c1ccc(C(F)(F)F)cc1 (stereo not drawn)
> 100 µM (inactive)

Then this compound: C=CC12CN(C)C3C4COC(CC41)C1(C(=O)Nc4ccccc41)C32 (stereo not drawn)
> 148 µM (inactive)

Then this compound: CCOC(=O)C(C)NC(=O)C(C)NC(=O)C(C)NC(=O)C(C)NC(=O)C(C)NC(=O)OCc1ccccc1 (stereo not drawn)
> 100 µM (inactive)

Then this compound: Oc1ccc2ccccc2c1-c1c(Nc2ccccc2)ccc2ccccc12
17.2 µM (inactive)
